Tested on: Polygonum convolvulus
PROCEDURE_SUMMARY: Post-emergence herbicidal action against POLCO
Type: in vivo
TEST_SETTINGS: 20 g a.i./ha
I'd appreciate it if you could supply Herbicidal action against [%] POLCO values for the items below.
Output spec: scalar in %, unitless text.

For CC1(C(=O)NC2C=CC(C(=O)OCCSC3CCCCC3)C2)CC(c2cc(F)cc(F)c2)=NO1 (stereo not shown) the compound record lists Herbicidal action against [%] POLCO as 80

For CSCCOC(=O)C1C=CC(NC(=O)C2(CCl)CC(c3cc(F)cc(F)c3)=NO2)C1 (stereo not shown) [Example I-31] the compound record lists Herbicidal action against [%] POLCO as 90

For CSCCOC(=O)C1C=CC(NC(=O)C2(CCl)CC(c3cc(F)cc(F)c3)=NO2)C1 (stereo not shown) [Example I-60] the compound record lists Herbicidal action against [%] POLCO as 80

For COC1(C(=O)NC2C=CC(C(=O)OCCSC(F)(F)F)C2)CC(c2cc(F)cc(F)c2)=NO1 (stereo not shown) the compound record lists Herbicidal action against [%] POLCO as 80

For CSCCOC(=O)C1C=CC(NC(=O)C2(CF)CC(c3cc(F)cc(C#N)c3)=NO2)C1 (stereo not shown) the compound record lists Herbicidal action against [%] POLCO as 90

For COC1(C(=O)NC2C=CC(C(=O)OCCSC)C2)CC(c2cc(F)cc(F)c2)=NO1 (stereo not shown) the compound record lists Herbicidal action against [%] POLCO as 80

For CSCCOC(=O)C1C=CC(NC(=O)C2(C)CC(c3cccc(F)c3)=NO2)C1 (stereo not shown) the compound record lists Herbicidal action against [%] POLCO as 80

For CCSCCOC(=O)C1C=CC(NC(=O)C2(C)CC(c3cc(F)cc(F)c3)=NO2)C1 (stereo not shown) the compound record lists Herbicidal action against [%] POLCO as 90

For COC1(C(=O)NC2C=CC(C(=O)OCCSC)C2)CC(c2cc(C)cc(F)c2)=NO1 (stereo not shown) the compound record lists Herbicidal action against [%] POLCO as 80

For CSCCOC(=O)C1C=CC(NC(=O)C2(C)CC(c3cc(C#N)cc(C#N)c3)=NO2)C1 (mixture of isomers) [Example I-46] the compound record lists Herbicidal action against [%] POLCO as 80

For CC1(C(=O)NC2C=CC(C(=O)OCCSCc3ccccc3)C2)CC(c2cc(F)cc(F)c2)=NO1 (stereo not shown) the compound record lists Herbicidal action against [%] POLCO as 90

For CSCCOC(=O)C1C=CC(NC(=O)C2(C3CC3)CC(c3cc(F)cc(F)c3)=NO2)C1 (stereo not shown) the compound record lists Herbicidal action against [%] POLCO as 80

For COC1(C(=O)NC2C=CC(C(=O)OCCSC(C)C)C2)CC(c2cc(F)cc(F)c2)=NO1 (stereo not shown) the compound record lists Herbicidal action against [%] POLCO as 80

For CC(C)CSCCOC(=O)C1C=CC(NC(=O)C2(C)CC(c3cc(F)cc(F)c3)=NO2)C1 (stereo not shown) the compound record lists Herbicidal action against [%] POLCO as 90

For CSCCOC(=O)C1C=CC(NC(=O)C2(C(F)(F)F)CC(c3cccc(C#N)c3)=NO2)C1 (mixture of isomers) the compound record lists Herbicidal action against [%] POLCO as 80

For C[S+]([O-])CCOC(=O)C1C=CC(NC(=O)C2(C)CC(c3cc(F)cc(F)c3)=NO2)C1 (mixture of isomers) the compound record lists Herbicidal action against [%] POLCO as 80

For C=CC1(C(=O)NC2C=CC(C(=O)OCCSC)C2)CC(c2cc(F)cc(C#N)c2)=NO1 (stereo not shown) the compound record lists Herbicidal action against [%] POLCO as 80

For CSCCOC(=O)C1C=CC(NC(=O)C2(C(F)(F)F)CC(c3cc(F)cc(C#N)c3)=NO2)C1 (mixture of isomers) [Example I-37] the compound record lists Herbicidal action against [%] POLCO as 80

For CC(=O)CCSCCOC(=O)C1C=CC(NC(=O)C2(C)CC(c3cc(F)cc(F)c3)=NO2)C1 (stereo not shown) the compound record lists Herbicidal action against [%] POLCO as 80

For CCS(=O)(=O)CCOC(=O)C1C=CC(NC(=O)C2(C)CC(c3cc(F)cc(F)c3)=NO2)C1 (stereo not shown) the compound record lists Herbicidal action against [%] POLCO as 90

For C=CCSCCOC(=O)C1C=CC(NC(=O)C2(OC)CC(c3cc(F)cc(F)c3)=NO2)C1 (stereo not shown) the compound record lists Herbicidal action against [%] POLCO as 80

For COC(=O)CSCCOC(=O)C1C=CC(NC(=O)C2(C)CC(c3cc(F)cc(F)c3)=NO2)C1 (stereo not shown) the compound record lists Herbicidal action against [%] POLCO as 80

----------
I'd appreciate it if you could supply Herbicidal action against [%] LOLRI values for the items below.
Test system: Lolium rigidum
PROCEDURE_SUMMARY: Post-emergence herbicidal action against LOLRI
Assay type: in vivo
TEST_SETTINGS: 20 g a.i./ha, visual rating about 3 weeks after treatment
Procedure: Post-Emergence Herbicidal Action Against Harmful Plants and Crop Plant Compatibility Seeds of monocotyledonous and dicotyledonous weeds and crop plants are placed in sandy loam in plastic or wood-fibre pots, covered with soil and cultivated in a greenhouse under controlled growth conditions. 2 to 3 weeks after sowing, the test plants are treated at the one-leaf stage. […]
Output spec: scalar in %, unitless text.

For C[S+]([O-])CCOC(=O)C1C=CC(NC(=O)C2(C)CC(c3cc(F)cc(F)c3)=NO2)C1 (mixture of isomers) the molecule record lists Herbicidal action against [%] LOLRI as 80

For CSCCOC(=O)C1C=CC(NC(=O)C2(C)CC(c3cc(Cl)cc(C#N)c3)=NO2)C1 (mixture of isomers) [Example I-49] the molecule record lists Herbicidal action against [%] LOLRI as 90

For C=CCSCCOC(=O)C1C=CC(NC(=O)C2(C)CC(c3cc(F)cc(F)c3)=NO2)C1 (stereo not drawn) the molecule record lists Herbicidal action against [%] LOLRI as 100

----------
System: Echinochloa crus-galli
PROCEDURE_SUMMARY: Post-emergence herbicidal action against ECHCG
Assay type: in vivo
TEST_SETTINGS: 20 g a.i./ha, visual rating about 3 weeks after treatment
I'd appreciate it if you could supply Herbicidal action against [%] ECHCG values for the items below.
Output spec: scalar in %, unitless text.

For CSCCOC(=O)C1C=CC(NC(=O)C2(CCl)CC(c3cc(F)cc(F)c3)=NO2)C1 (stereo not drawn) [Example I-60] the compound record lists Herbicidal action against [%] ECHCG as 80

For C[S+]([O-])CCOC(=O)C1C=CC(NC(=O)C2(C)CC(c3cccc(F)c3)=NO2)C1 (mixture of isomers) the compound record lists Herbicidal action against [%] ECHCG as 80

For CC(=O)CCSCCOC(=O)C1C=CC(NC(=O)C2(C)CC(c3cc(F)cc(F)c3)=NO2)C1 (stereo not drawn) the compound record lists Herbicidal action against [%] ECHCG as 80

For CSCCOC(=O)C1C=CC(NC(=O)C2(C3CC3)CC(c3cc(F)cc(F)c3)=NO2)C1 (stereo not drawn) the compound record lists Herbicidal action against [%] ECHCG as 90

For CSCCOC(=O)C1C=CC(NC(=O)C2(CCl)CC(c3cc(F)cc(F)c3)=NO2)C1 (stereo not drawn) [Example I-31] the compound record lists Herbicidal action against [%] ECHCG as 90

For C[S+]([O-])CCOC(=O)C1C=CC(NC(=O)C2(C)CC(c3cc(F)cc(F)c3)=NO2)C1 (mixture of isomers) the compound record lists Herbicidal action against [%] ECHCG as 80

For CSCCOC(=O)C1C=CC(NC(=O)C2(CF)CC(c3cc(F)cc(F)c3)=NO2)C1 (stereo not drawn) the compound record lists Herbicidal action against [%] ECHCG as 90

For CC1(C(=O)NC2C=CC(C(=O)OCCSCC(F)(F)F)C2)CC(c2cc(F)cc(F)c2)=NO1 (stereo not drawn) the compound record lists Herbicidal action against [%] ECHCG as 80

For CC1(C(=O)NC2C=CC(C(=O)OCCSCc3ccc(F)cc3)C2)CC(c2cc(F)cc(F)c2)=NO1 (stereo not drawn) the compound record lists Herbicidal action against [%] ECHCG as 90

For CSCCOC(=O)C1C=CC(NC(=O)C2(C)CC(c3cccc(F)c3)=NO2)C1 (stereo not drawn) the compound record lists Herbicidal action against [%] ECHCG as 80

For CSCCOC(=O)C1C=CC(NC(=O)C2(C)CC(c3cc(F)cc(Cl)c3)=NO2)C1 (stereo not drawn) the compound record lists Herbicidal action against [%] ECHCG as 80

For CSCCOC(=O)C1C=CC(NC(=O)C2(C)CC(c3cc(C)cc(Cl)c3)=NO2)C1 (stereo not drawn) the compound record lists Herbicidal action against [%] ECHCG as 90

For CSCCOC(=O)C1C=CC(NC(=O)C2(C)CC(c3cc(C)cc(F)c3)=NO2)C1 (stereo not drawn) the compound record lists Herbicidal action against [%] ECHCG as 80

For CSCCOC(=O)C1C=CC(NC(=O)C2(C)CC(c3cc(Cl)cc(C#N)c3)=NO2)C1 (stereo not drawn) the compound record lists Herbicidal action against [%] ECHCG as 80

For COC1(C(=O)NC2C=CC(C(=O)OCCSC)C2)CC(c2cc(F)cc(F)c2)=NO1 (stereo not drawn) [Example I-19] the compound record lists Herbicidal action against [%] ECHCG as 90

For CSCCOC(=O)C1C=CC(NC(=O)C2(C(F)(F)F)CC(c3cccc(C#N)c3)=NO2)C1 (mixture of isomers) the compound record lists Herbicidal action against [%] ECHCG as 80

For C=CC1(C(=O)NC2C=CC(C(=O)OCCSC)C2)CC(c2cc(F)cc(C#N)c2)=NO1 (stereo not drawn) the compound record lists Herbicidal action against [%] ECHCG as 90

For CC(C)C(=O)SCCOC(=O)C1C=CC(NC(=O)C2(C)CC(c3cc(F)cc(F)c3)=NO2)C1 (stereo not drawn) the compound record lists Herbicidal action against [%] ECHCG as 80

For C=CCSCCOC(=O)C1C=CC(NC(=O)C2(C)CC(c3cc(F)cc(F)c3)=NO2)C1 (stereo not drawn) the compound record lists Herbicidal action against [%] ECHCG as 90

For COC1(C(=O)NC2C=CC(C(=O)OCCSC)C2)CC(c2cc(C)cc(F)c2)=NO1 (stereo not drawn) the compound record lists Herbicidal action against [%] ECHCG as 80

For CSCCOC(=O)C1C=CC(NC(=O)C2(C)CC(c3cccc(C#N)c3)=NO2)C1 (stereo not drawn) the compound record lists Herbicidal action against [%] ECHCG as 80

For CC(C)SCCOC(=O)C1C=CC(NC(=O)C2(C)CC(c3cc(F)cc(F)c3)=NO2)C1 (stereo not drawn) the compound record lists Herbicidal action against [%] ECHCG as 90

For CN(C)C(=O)SCCOC(=O)C1C=CC(NC(=O)C2(C)CC(c3cc(F)cc(F)c3)=NO2)C1 (stereo not drawn) the compound record lists Herbicidal action against [%] ECHCG as 80

For COC1(C(=O)NC2C=CC(C(=O)OCCSC(=O)N(C)C)C2)CC(c2cc(F)cc(F)c2)=NO1 (stereo not drawn) the compound record lists Herbicidal action against [%] ECHCG as 90
